# Target Of Assay: T1, Human Id1: Histidine (human, UniProt P41134 1-155, limits assumed)
# T1 construct: Fusion protein made in E. coli from vector pGW07; also called h-Id1: his; not shown: His tag
# T1 sequence (looked up): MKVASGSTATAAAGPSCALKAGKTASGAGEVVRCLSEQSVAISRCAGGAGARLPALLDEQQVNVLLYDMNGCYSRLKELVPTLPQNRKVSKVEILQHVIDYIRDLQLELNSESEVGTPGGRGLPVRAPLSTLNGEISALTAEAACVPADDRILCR
# Procedure Summary: ELISA, Ab 0.250 µg/ml
Parameter Measured: A450 (A450)
API: value field is a number in A450; no unit string.

The cases that follow already have their A450 on record.
{"Binder": "rabbit monoclonal anti-mouse/human Id3, clone #BCH-4/#42-1 (antibody, V domains shown, Rabbit IgG from a rabbit hybridoma; also called m/h Id3 MoAb 42-1) VH: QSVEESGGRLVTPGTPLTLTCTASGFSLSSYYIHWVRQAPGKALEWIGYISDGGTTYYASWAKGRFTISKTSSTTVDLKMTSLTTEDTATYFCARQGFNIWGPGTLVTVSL VL: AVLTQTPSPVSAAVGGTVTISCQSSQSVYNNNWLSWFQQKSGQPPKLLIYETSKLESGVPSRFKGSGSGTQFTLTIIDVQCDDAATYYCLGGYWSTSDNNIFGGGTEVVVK", "A450 / A450": 0.044}
{"Binder": "rabbit monoclonal anti-human Id3, clone #BCH-4/#3-3 (antibody, V domains shown, Rabbit IgG from a rabbit hybridoma; also called h Id3 MoAb 3-3) VH: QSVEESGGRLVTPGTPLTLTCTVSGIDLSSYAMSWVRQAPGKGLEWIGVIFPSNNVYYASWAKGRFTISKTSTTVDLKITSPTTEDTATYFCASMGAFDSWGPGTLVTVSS VL: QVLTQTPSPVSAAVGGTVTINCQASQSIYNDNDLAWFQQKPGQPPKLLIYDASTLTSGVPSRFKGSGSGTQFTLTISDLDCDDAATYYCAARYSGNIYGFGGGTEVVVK", "A450 / A450": 0.047}

Proceeding to the next binder to report its A450.
For the binder rabbit monoclonal anti-mouse/human Id3, clone #BCH-4/#17-3 (antibody, V domains shown, Rabbit IgG from a rabbit hybridoma; also called m/h Id3 MoAb 17-3; BCH-3/#17-3) VH: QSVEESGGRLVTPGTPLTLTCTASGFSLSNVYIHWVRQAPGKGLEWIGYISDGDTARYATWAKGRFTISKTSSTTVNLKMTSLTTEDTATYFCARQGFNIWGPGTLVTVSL VL: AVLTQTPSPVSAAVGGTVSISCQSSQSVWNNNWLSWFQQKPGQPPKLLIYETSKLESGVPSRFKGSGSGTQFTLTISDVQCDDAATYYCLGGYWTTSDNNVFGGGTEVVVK , give its measured A450 value.
0.045

This collection of values is drawn from patent US20070178531A1.
